The following binders are listed with their measured pEC50 hSCTR values.
measured target: human secretin receptor (hSCTR) (human, UniProt P47872 23-440)
Sequence (P47872 23-440): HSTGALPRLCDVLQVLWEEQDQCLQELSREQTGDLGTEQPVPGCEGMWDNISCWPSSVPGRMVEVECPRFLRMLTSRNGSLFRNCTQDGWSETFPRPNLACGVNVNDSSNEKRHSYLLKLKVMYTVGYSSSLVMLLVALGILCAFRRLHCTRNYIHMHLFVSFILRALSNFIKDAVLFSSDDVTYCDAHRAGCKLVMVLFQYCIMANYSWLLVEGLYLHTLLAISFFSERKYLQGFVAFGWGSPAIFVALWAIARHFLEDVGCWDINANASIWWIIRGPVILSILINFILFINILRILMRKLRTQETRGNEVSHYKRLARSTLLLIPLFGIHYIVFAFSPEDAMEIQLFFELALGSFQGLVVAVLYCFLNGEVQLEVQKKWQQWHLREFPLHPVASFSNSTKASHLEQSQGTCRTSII
method: cell-based or functional assay
Numbered stars: 1 amine (or outer) side, 2 acyl side, 3 side chain; on linkers, the order of the positions; unused ones are H or OH. Square brackets hold non-standard residues; d marks the D form. Side chains are listed from the residue outwards. Ends that are not written are not given here. * marks the point of attachment. C20 diacid = O=C(O)CCCCCCCCCCCCCCCCCCC(=O)*; γGlu = O=C(O)[C@H](CCC(=O)[*:2])N[*:1]; AEEA = NCCOCCOCC(=O)O; Aib = CC(C)(N)C(=O)O

{"binder": "H[Aib]EGTFTSDVSYLK([AEEA-AEEA-γGlu-C20 diacid])ETAAQQRFLEHLV-NH2 [SEQ ID NO: 58]", "pEC50 hSCTR": "6 -log M"}
{"binder": "H[Aib]EGTFTSDVSTLKEEAAAQRFLEHLV-NH2 (not fully specified (residue 14)) [SEQ ID NO: 96]", "pEC50 hSCTR": "6.4 -log M"}
{"binder": "H[Aib]EGTFTSDVSELKEEAA[Aib]QRFLEHLV-NH2 (not fully specified (residue 14)) [SEQ ID NO: 97]", "pEC50 hSCTR": "5.8 -log M"}
{"binder": "H[Aib]EGTFTSDVSRLK([AEEA-AEEA-γGlu-C20 diacid])ELAAAQRFLEHLV-NH2 [SEQ ID NO: 9]", "pEC50 hSCTR": "6 -log M"}
{"binder": "H[Aib]EGTFTSDVSRLK([AEEA-AEEA-γGlu-C20 diacid])EFAA[Aib]QRFLEHLV-NH2 [SEQ ID NO: 68]", "pEC50 hSCTR": "5.9 -log M"}
